experiment: NFkB reporter suppression in cystic fibrosis bronchial cells – cell-based, uHTS hits, panel, cytotoxicity readout, dose response (AID 624344); call rule not given here
applied conditions: CF bronchial epithelial cells, PAF-induced NFkB reporter inhibition; with PAF, mean of runs
Outcome (select one): 1 (active), 0 (inactive)

Tell me the assay call for O=C(NC1CCCC(C(F)(F)F)C1)c1ccc([N+](=O)[O-])o1 (stereo unspecified) please.
1

###

experiment: NFkB reporter suppression in cystic fibrosis bronchial cells – cell-based, uHTS hits, panel, cytotoxicity readout, dose response (AID 624344)
applied conditions: CF bronchial epithelial cells, PAF-induced NFkB reporter inhibition; with PAF, mean of runs
Active and inactive are the calls of the source. How the calls were made is not given here.
Outcome (select one): Yes for active, No for inactive

Reference set (5 entries):
compound	answer label
O=C(Nc1ccc(Cl)cc1)c1nc[nH]c1C(=O)NCCCCNC(=O)c1[nH]cnc1C(=O)Nc1ccc(Cl)cc1	Yes
CC1(C)CC(=O)C=C(NC2=CC3OC(c4ccccc4)OCC3OC2=O)C1 (stereo not drawn)	Yes
COc1cc(OC)cc(C(=O)N[C@H](C(=O)Nc2nc3ccccc3[nH]2)C(C)C)c1	No
NC(=O)c1sc2nc3c(c(-c4ccccc4)c2c1N)CCC3	Yes
COc1ccc(-c2cn[nH]c2-c2ccc(O)cc2O)cc1	Yes

Tell me the assay call for `O=C(NCc1nc(-c2ccc(C(F)(F)F)cc2)no1)Nc1cc(Cl)cc(Cl)c1` please.
Yes

Tell me the assay call for `Clc1cccc(Nc2ncnc3ccc(Br)cc23)c1` please.
Yes

Tell me the assay call for `Cc1[nH]nc2nc(SCC(=O)NCCC3=CCCCC3)n(-c3ccc(Br)cc3)c(=N)c12` please.
Yes

Tell me the assay call for `Cc1nc([N+](=O)[O-])c(Sc2nc3ccc([N+](=O)[O-])cc3[nH]2)n1Cc1ccccc1` please.
Yes

Tell me the assay call for `CCN1CCN(Cc2ccc(NC(=O)c3ccc(C)c(NC(=O)N4CCNC4=O)c3)cc2C(F)(F)F)CC1` please.
Yes

Tell me the assay call for `O=C(Nc1ccc(F)cc1)Nc1ccc(N2CCCC2)c(S(=O)(=O)Nc2ccccc2Cl)c1` please.
Yes
